Each entry below carries its recorded OD450.
- study-target: T1, extracellular tau in the form of paired helical filaments (ePHF tau) (UniProt P10636-8 1-441, limits assumed)
- T1 construct: Aggregated, hyperphosphorylated tau preparation; not a single defined polypeptide
- T1 sequence (P10636 other isoform, or with tags, fused parts or gaps limits assumed): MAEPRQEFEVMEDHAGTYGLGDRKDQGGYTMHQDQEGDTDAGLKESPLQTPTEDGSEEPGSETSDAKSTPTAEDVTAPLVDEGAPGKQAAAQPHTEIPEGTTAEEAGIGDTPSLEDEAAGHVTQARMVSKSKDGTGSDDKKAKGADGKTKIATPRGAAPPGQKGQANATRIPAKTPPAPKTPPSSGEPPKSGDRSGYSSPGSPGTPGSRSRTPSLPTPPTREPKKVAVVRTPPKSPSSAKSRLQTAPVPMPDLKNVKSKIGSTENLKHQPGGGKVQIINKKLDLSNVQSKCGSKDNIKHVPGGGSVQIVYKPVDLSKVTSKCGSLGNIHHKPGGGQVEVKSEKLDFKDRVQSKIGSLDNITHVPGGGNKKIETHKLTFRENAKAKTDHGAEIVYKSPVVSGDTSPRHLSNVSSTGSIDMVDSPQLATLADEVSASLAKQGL
- assay-comment: ePHF tau ELISA, ePHF coated; antibody at 18.5 ng/ml; anti-mouse-HRP
Number in OD450, nothing else.

anti-tau antibody MC1 expressed from viral genome construct MC1LF2AH (TAU_ITR79; SEQ ID NO: 2068) (antibody, V domains shown) VH: QVQLQQSGAELMKPGASVKISCKATGYTFSNYWIEWVKQRPGHGLEWIGEILPGSDSIKYNENFKGKATFTADTSSNTAYMQLSSLTSEDSAVYYCARRGNYPDYWGQGTTLTVSS VL: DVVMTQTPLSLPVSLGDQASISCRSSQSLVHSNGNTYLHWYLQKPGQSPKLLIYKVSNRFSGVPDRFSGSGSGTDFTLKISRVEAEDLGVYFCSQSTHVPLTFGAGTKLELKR    0.2
anti-tau antibody MC1 expressed from viral genome construct MC1HF.F2AL (TAU_ITR72; SEQ ID NO: 2061) (antibody, V domains shown) VH: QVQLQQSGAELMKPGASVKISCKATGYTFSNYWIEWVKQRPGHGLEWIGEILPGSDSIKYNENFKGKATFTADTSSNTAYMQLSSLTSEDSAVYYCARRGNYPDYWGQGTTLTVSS VL: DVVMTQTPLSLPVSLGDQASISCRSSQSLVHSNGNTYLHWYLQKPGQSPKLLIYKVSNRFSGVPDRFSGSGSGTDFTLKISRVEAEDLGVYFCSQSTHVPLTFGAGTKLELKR    0.3
anti-tau antibody MC1 expressed from viral genome construct MC1LIRESH (TAU_ITR80; SEQ ID NO: 2069) (antibody, mouse IgG1, kappa, V domains shown) VH: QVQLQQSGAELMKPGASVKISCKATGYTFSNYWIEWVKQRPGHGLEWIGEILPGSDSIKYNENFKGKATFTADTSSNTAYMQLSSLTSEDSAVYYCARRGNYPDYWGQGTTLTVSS VL: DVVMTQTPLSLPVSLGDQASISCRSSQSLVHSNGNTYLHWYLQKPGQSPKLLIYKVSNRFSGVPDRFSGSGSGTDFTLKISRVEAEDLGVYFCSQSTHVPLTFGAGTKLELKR    0.2
anti-tau antibody MC1 expressed from viral genome construct MC1HIRESL (TAU_ITR75; SEQ ID NO: 2064) (antibody, mouse IgG1, kappa, V domains shown) VH: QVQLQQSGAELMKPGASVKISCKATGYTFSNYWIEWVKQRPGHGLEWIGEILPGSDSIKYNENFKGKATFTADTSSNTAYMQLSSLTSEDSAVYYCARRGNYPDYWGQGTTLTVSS VL: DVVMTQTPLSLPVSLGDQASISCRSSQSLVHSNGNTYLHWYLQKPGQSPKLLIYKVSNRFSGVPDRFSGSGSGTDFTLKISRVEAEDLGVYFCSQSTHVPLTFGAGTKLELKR    0.1

Turning to the following binder.
-- ask Suppose we examine the binder anti-tau antibody MC1 expressed from viral genome construct MC1HF.P2AL (TAU_ITR73; SEQ ID NO: 2062) (antibody, V domains shown) VH: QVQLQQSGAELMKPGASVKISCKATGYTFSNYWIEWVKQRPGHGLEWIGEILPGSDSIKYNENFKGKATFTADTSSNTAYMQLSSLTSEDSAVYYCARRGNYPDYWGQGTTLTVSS VL: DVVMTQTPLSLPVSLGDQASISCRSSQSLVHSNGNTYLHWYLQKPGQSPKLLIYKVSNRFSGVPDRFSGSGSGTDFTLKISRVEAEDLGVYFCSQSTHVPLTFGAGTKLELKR ; what OD450 value has been reported?
-- reply 0.2

Data origin: patent US20220339270A1
